Assay: qHTS RealTime-Glo MT Cell Viability Assay in HEK293 cells - 40 hour (AID 1224874); further: nearly all actives have a fitted effect of over 50% in size
Settings: RealTime-Glo luminescence; stronger effect = lower value
Inconclusive results are not listed.
Criterion: max response strictly less than -20%. Met: True. Not met: False.

1. CCCCOCCOP(=O)(OCCOCCCC)OCCOCCCC; False
2. C[C@]12CCC(=O)C(O)=C1CC[C@@H]1[C@@H]2CC[C@]2(C)C(=O)CC[C@@H]12; False
3. CCCCC(CC)COC(=O)Cl (centres undefined); False
4. c1cc(OCC2CO2)ccc1Cc1ccc(OCC2CO2)cc1 (centres undefined); True
5. O=C1C=CC(=O)C=C1; False
6. Nc1ccc(-c2ccc(N)c(N)c2)cc1N; False
7. CCOc1cc(Oc2ccc(C(F)(F)F)cc2Cl)ccc1[N+](=O)[O-]; True
8. CC(C)=CC1C(C(=O)OCc2coc(Cc3ccccc3)c2)C1(C)C (centres undefined); False
9. CCCCCCOC(=O)c1ccccc1C(=O)OCCCCCC; True
10. O=Cc1ccco1; False
11. Nc1ccc(Cl)c(Cl)c1; False
12. Nc1c(Cl)cc([N+](=O)[O-])cc1Cl; False
13. O=[N+]([O-])c1ccc(O)c([N+](=O)[O-])c1; False

###

Assay: qHTS assay to identify small molecule antagonists of the thyroid receptor (TR) signaling pathway - cell viability counter screen (AID 743064); further: nearly all actives have a fitted effect of over 50% in size
Conditions: GH3.TRE-Luc viability, CellTiter-Fluor, 24 h; series mostly up to 70.3 µM
Results filed as inconclusive are left out. Active and inactive are the calls of the source. Calls follow the shape of the dose curve; as a rule, active = well fitted cell-killing curve with a large enough effect in the repeat runs; inconclusive = weak or mixed curves, or effect the other way; inactive = no such curve, though single readings can be large or run the other way.
Labels: t for active, f for inactive

1) CCOC(=O)C(C)OC(=O)c1cc(Oc2ccc(C(F)(F)F)cc2Cl)ccc1[N+](=O)[O-] (configuration not stated); f
2) CCCCN(CC)c1c([N+](=O)[O-])cc(C(F)(F)F)cc1[N+](=O)[O-]; t
3) O=[N+]([O-])c1c(Cl)c(Cl)c(Cl)c(Cl)c1Cl; t
4) CCOC(=S)S; f
5) CCc1cccc(CC)c1N(COC)C(=O)CCl; f
6) COP(=S)(OC)Oc1ccc([N+](=O)[O-])cc1; f
7) CCCCC(CC)COC(=O)c1ccc(C(=O)OCC(CC)CCCC)c(C(=O)OCC(CC)CCCC)c1 (configuration not stated); f
8) c1ccc(-c2cccc(-c3ccccc3)c2)cc1; f
9) COP(=S)(OC)Oc1cc(Cl)c(Cl)cc1Cl; f
10) O=Cc1ccco1; f
11) c1ccc(P(c2ccccc2)c2ccccc2)cc1; f
12) C1=Cc2cccc3cccc1c23; f

###

Test: qHTS assay to test for compound auto fluorescence at 460 nm (blue) in HepG2 cell free culture (AID 720685)
Details: Cell-free culture medium, blue autofluorescence 405/460 nm; series mostly up to 91.3 µM
Activity calls are given as the source filed them. Calls follow the shape of the dose curve; as a rule, active = well fitted curve in the direction sought with a large enough effect in the repeat runs; inconclusive = weak or mixed curves; inactive = flat fitted curve, though single readings scatter.
VALUE TYPE: outcome

1. CCOC(=O)C(C)OC(=O)c1cc(Oc2ccc(C(F)(F)F)cc2Cl)ccc1[N+](=O)[O-] (stereo not drawn); inactive
2. O=C(O)CC[N+](=O)[O-]; inactive
3. CCOc1cc(Oc2ccc(C(F)(F)F)cc2Cl)ccc1[N+](=O)[O-]; inactive
4. CCCCC(CC)COC(=O)Cl (stereo not drawn); inactive
5. Nc1c(Cl)cc([N+](=O)[O-])cc1Cl; inactive
6. CCC(C)(c1ccc(O)cc1)c1ccc(O)cc1; inactive
7. CCOc1cc(C=O)ccc1O; inactive
8. CCCCN(CC)c1c([N+](=O)[O-])cc(C(F)(F)F)cc1[N+](=O)[O-]; inactive
9. N#Cc1cc(Br)c(O)c(Br)c1; inactive
10. O=C(Nc1ccc(Br)cc1)c1cc(Br)cc(Br)c1O; inactive
11. CCCCC(CC)COC(=O)c1ccc(C(=O)OCC(CC)CCCC)c(C(=O)OCC(CC)CCCC)c1 (stereo not drawn); inactive
12. N[C@@H](Cc1ccc(N(CCCl)CCCl)cc1)C(=O)O; inactive
13. O=P(O)(O)CCCl; inactive
14. O=C1C=CC(=O)C=C1; inactive
15. CCCCN(CCCC)N=O; inactive
16. COP(=O)(OC)OC; inactive
17. CCCCNC(=O)n1c(NC(=O)OC)nc2ccccc21; inactive
18. CCN(CC)C(=O)/C(Cl)=C(\C)OP(=O)(OC)OC; inactive
19. Cc1ccc(OP(=O)(Oc2ccc(C)cc2)Oc2ccc(C)cc2)cc1; inactive
20. CCOC(=S)S; inactive
21. CC(C)(C)c1ccccc1O; inactive
22. c1ccc(-c2cccc(-c3ccccc3)c2)cc1; inactive
23. CCOP(=S)(OCC)O/N=C(\C#N)c1ccccc1; inactive
24. COc1ccc(C=O)cc1; inactive
25. CN(C)C(=O)Nc1ccc(Cl)cc1; inactive
26. CC(C)(c1cc(Cl)c(O)c(Cl)c1)c1cc(Cl)c(O)c(Cl)c1; inactive
27. C=CCc1ccc2c(c1)OCO2; inactive
28. Cc1ccc(N)c(N)c1; inactive

###

Target: Aryl hydrocarbon receptor (Homo sapiens) (UniProt P35869)
Sequence (P35869 whole entry, looked up): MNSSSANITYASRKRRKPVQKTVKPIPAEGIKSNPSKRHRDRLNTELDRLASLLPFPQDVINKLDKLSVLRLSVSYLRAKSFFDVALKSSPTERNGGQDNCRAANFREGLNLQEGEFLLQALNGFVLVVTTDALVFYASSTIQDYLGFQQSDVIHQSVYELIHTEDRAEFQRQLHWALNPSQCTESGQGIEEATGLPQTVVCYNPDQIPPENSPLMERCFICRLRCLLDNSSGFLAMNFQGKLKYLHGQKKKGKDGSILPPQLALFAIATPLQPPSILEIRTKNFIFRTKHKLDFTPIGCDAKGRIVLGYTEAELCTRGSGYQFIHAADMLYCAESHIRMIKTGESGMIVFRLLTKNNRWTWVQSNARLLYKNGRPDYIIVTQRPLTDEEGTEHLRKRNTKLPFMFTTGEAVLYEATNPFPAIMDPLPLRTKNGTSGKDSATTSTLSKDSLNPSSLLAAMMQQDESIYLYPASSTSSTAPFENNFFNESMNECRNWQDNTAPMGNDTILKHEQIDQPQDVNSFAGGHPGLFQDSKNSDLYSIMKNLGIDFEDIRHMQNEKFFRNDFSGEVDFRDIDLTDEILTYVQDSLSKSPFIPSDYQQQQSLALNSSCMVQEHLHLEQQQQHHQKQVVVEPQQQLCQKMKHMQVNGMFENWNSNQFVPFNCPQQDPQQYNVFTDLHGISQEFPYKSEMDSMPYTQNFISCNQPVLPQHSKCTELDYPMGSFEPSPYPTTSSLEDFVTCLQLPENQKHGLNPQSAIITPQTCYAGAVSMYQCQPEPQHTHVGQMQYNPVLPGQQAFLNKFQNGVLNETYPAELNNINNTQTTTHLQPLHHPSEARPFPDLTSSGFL
Assay: qHTS assay to identify small molecule that activate the aryl hydrocarbon receptor (AhR) signaling pathway (AID 743085); further: nearly all actives have a fitted effect of over 15% in size;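 on activation: HG2L7.5c1 human HepG2 liver cells with stably integrated DRE-driven firefly reporter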
Conditions: HepG2 AhR-luc (HG2L7.5c1), luciferase, 24 h; series mostly up to 70.3 µM
Records with an inconclusive call do not appear. Calls of active or inactive are those of the source. Calls come from the whole dose curve; as a rule, active = well fitted activation curve with a large enough effect in the repeat runs; inconclusive = weak or mixed curves; inactive = no such curve, though single readings can be large or run the other way.
Labels: active, inactive

1. Oc1cc(Cl)c(Cl)cc1Cl; inactive
2. CCN(CC)C(=O)/C(Cl)=C(\C)OP(=O)(OC)OC; inactive
3. CCC(C)(c1ccc(O)cc1)c1ccc(O)cc1; inactive
4. CC(C)(OOC(C)(C)c1ccccc1)c1ccccc1; inactive
5. C#C[C@]1(O)CC[C@H]2[C@@H]3CCC4=CC(=O)CC[C@]4(C)[C@H]3CC[C@@]21C; inactive
6. OCC(O)CO; inactive
7. O=C1C=CC(=O)C=C1; inactive
8. CCC(=O)O[C@H]1CC[C@H]2[C@@H]3CCC4=CC(=O)CC[C@]4(C)[C@H]3CC[C@]12C; inactive
9. CC(O)CCO (centres undefined); inactive
10. Nc1ccc(-c2ccccc2)cc1; active
11. CCc1cccc(CC)c1N(COC)C(=O)CCl; inactive
12. Oc1cc(Cl)ccc1Cl; inactive
13. O=P(O)(O)CCCl; inactive
14. C=C(C)C(=O)OCC1CO1 (centres undefined); inactive
15. CCC(C)(C)c1ccc(O)cc1; inactive
16. NC(=S)Nc1ccccc1; inactive
17. CCC(CC)Nc1c([N+](=O)[O-])cc(C)c(C)c1[N+](=O)[O-]; inactive
18. COC(=O)c1sccc1S(=O)(=O)NC(=O)Nc1nc(C)nc(OC)n1; inactive
19. O=C(CCl)c1ccccc1; inactive
20. Cc1cc(Cl)ccc1OCCCC(=O)O; inactive
21. CCCCCCCCOC(=O)c1ccccc1C(=O)OCCCCCCCC; inactive
22. CCCCN(CC)c1c([N+](=O)[O-])cc(C(F)(F)F)cc1[N+](=O)[O-]; inactive
23. CCN(CC)C(=O)SCc1ccc(Cl)cc1; inactive
24. O=P(Oc1ccccc1)(Oc1ccccc1)Oc1ccccc1; inactive
25. CCCCC(CC)COC(=O)Cl (centres undefined); inactive
26. CC(C)(c1cc(Cl)c(O)c(Cl)c1)c1cc(Cl)c(O)c(Cl)c1; inactive
27. CCCCCc1cc(O)cc(O)c1; active
28. Oc1c(Cl)c(Cl)c(Cl)c(Cl)c1Cl; active
29. C=C(C)[C@H]1Cc2c(ccc3c2O[C@@H]2COc4cc(OC)c(OC)cc4[C@@H]2C3=O)O1; inactive
30. CCCCCCCCCCCOC(=O)c1ccccc1C(=O)OCCCCCCCCCCC; inactive
31. C#CCOS(=O)OC1CCCCC1Oc1ccc(C(C)(C)C)cc1 (centres undefined); inactive
32. NCc1cccnc1; inactive
33. Brc1ccc(Oc2cc(Br)c(Br)cc2Br)c(Br)c1; inactive
34. C=CCc1ccc(OC)cc1; inactive
35. Nc1cccnc1; inactive
36. CC(C)(C)c1ccccc1O; inactive
37. Clc1nc(Cl)nc(Cl)n1; inactive
38. O=C(O)CC[N+](=O)[O-]; inactive
39. COP(=S)(OC)Oc1ccc([N+](=O)[O-])cc1; inactive
40. CC(C)NC(C)C; inactive
41. Nc1c(Cl)cc([N+](=O)[O-])cc1Cl; inactive
42. COP(=O)(OC)OC; inactive
43. CCCCC(CC)COC(=O)c1ccc(C(=O)OCC(CC)CCCC)c(C(=O)OCC(CC)CCCC)c1 (centres undefined); inactive
44. O=c1oc2ccccc2c(O)c1C(CC(O)c1ccc(-c2ccc(Br)cc2)cc1)c1ccccc1 (centres undefined); inactive
45. c1ccc(P(c2ccccc2)c2ccccc2)cc1; inactive
46. CC1(C)C(C=C(Cl)Cl)C1C(=O)OC(C#N)c1cccc(Oc2ccccc2)c1 (centres undefined); inactive
47. O=[N+]([O-])c1ccc(O)c([N+](=O)[O-])c1; active
48. S=C1NCCN1; inactive
49. O=[N+]([O-])c1cccc2ccccc12; inactive
50. CCN(CC)N=O; inactive
51. CCCCCCOC(=O)c1ccccc1C(=O)OCCCCCC; inactive
52. C[C@]12CCC(=O)C(O)=C1CC[C@@H]1[C@@H]2CC[C@]2(C)C(=O)CC[C@@H]12; inactive
53. ClC1C(Cl)C(Cl)C(Cl)C(Cl)C1Cl (centres undefined); inactive
54. Nc1ccncc1; inactive
